test.system: 5-hydroxytryptamine receptor 2B (Homo sapiens)
Sequence (P41595 whole entry): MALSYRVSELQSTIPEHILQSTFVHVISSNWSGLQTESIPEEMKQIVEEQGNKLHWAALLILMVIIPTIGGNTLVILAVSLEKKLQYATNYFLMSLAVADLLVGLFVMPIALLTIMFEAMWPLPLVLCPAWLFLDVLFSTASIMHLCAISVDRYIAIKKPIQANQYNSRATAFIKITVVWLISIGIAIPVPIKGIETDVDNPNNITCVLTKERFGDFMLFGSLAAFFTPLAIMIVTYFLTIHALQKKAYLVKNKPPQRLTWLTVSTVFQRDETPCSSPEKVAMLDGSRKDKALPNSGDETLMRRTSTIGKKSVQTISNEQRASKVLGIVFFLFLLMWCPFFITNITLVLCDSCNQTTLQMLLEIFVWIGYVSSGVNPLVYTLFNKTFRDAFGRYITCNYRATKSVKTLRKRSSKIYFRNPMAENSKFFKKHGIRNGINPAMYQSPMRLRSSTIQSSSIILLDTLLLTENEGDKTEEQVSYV
assay.summary: Agonist activity at human 5HT2B receptor expressed in HEK293 cells assessed as calcium flux measured every sec for 3 mins by FLIPR assay
Format: functional, cell-based
measurement.conditions: read-out: EC50
Catalogue of compounds with associated pEC50
To interpret pEC50, take it as minus log10 of a concentration measured in moles per litre.

Known results for compounds:
[[record]]
compound = "NC[C@H]1C[C@@H]1c1cc(F)ccc1OCC1CC1"
assay_result = 6.54

[[record]]
compound = "CCCOc1ccccc1[C@H]1C[C@@H]1CN.Cl (racemic)"
assay_result = 6.52

[[record]]
compound = "Cl.NC[C@H]1C[C@@H]1c1ccccc1OCc1ccccc1 (racemic)"
assay_result = 5.97


Let's switch to this compound now.
Give pEC50 for CCOc1ccccc1[C@H]1C[C@@H]1CN (racemic)
6.48
